- measured.on: Granzyme A (Homo sapiens) (UniProt P12544)
- Sequence (whole entry): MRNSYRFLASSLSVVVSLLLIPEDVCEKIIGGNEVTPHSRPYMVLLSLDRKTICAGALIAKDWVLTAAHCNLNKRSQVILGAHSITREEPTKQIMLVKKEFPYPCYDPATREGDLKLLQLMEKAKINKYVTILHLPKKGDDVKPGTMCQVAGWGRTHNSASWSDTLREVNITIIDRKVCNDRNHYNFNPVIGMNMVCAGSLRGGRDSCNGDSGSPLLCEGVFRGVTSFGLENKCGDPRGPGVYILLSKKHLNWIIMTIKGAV
- assay.summary: Inhibition of human granzyme A
assay.readout: kobs/[I] (second-order inactivation rate constant) (M⁻¹ s⁻¹)

- compound: "NC(N)c1ccc(C(NS(=O)(=O)c2cccc3ccccc23)P(=O)(Oc2ccccc2)Oc2ccccc2)cc1 (centres undefined)"
  assay.value: 330
- compound: "C[C@@H](O)[C@H](NC(=O)OCc1ccccc1)C(=O)NC(c1ccc(C(=N)N)cc1)P(=O)(Oc1ccccc1)Oc1ccccc1 (some centres undefined)"
  assay.value: 2220
- compound: "NC(N)c1ccc(C(NC(=O)OCc2cccc3ccccc23)P(=O)(Oc2ccccc2)Oc2ccccc2)cc1 (centres undefined)"
  assay.value: 160
- compound: "C[C@H](NC(=O)[C@@H](CCCCN)NC(=O)OCc1ccccc1)C(=O)NC(c1ccc(C(N)N)cc1)P(=O)(Oc1ccccc1)Oc1ccccc1 (some centres undefined)"
  assay.value: 90

Where these numbers come from: ChEMBL document CHEMBL1131259
